# PROTOCOL_DESCRIPTION: Pharmacokinetics in ICR mice after IV and PO dose
# Format: in vivo
# EXPERIMENTAL_SETUP: mouse, plasma, IV, 3.4 mg/kg
MEASURED_ENDPOINT: AUC(0-t) (ng·h/mL)

compound="C#Cc1cccc(Nc2nc3cc(C(=O)O)ccc3c3cncnc23)c1 [drawing 1347]" units_text=ng·h/mL observed_measurement=4810

----------
# TARGET_DESC: recombinant human PIM-1 (Homo sapiens (Human), UniProt P11309)
# Sequence (P11309 whole entry): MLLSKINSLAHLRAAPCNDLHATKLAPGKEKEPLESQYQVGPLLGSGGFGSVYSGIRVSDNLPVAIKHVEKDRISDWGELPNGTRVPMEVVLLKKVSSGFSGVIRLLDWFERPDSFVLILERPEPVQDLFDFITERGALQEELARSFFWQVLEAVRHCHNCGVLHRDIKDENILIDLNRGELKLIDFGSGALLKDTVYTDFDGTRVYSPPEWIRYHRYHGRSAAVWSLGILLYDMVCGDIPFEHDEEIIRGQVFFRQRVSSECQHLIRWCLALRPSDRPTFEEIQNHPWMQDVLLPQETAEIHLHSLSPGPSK
# PROTOCOL_DESCRIPTION: PIM-1 assay (cell-free, radiometric)
MEASURED_ENDPOINT: IC50 (nM)

compound="C#Cc1cccc(Nc2nc3cc(C(=O)O)ccc3c3cncnc23)c1 [compound A2]" observed_measurement=189

----------
# Tested on: A549
# PROTOCOL_DESCRIPTION: Cell proliferation assay, Alamar Blue, A549
# Assay type: cell-based
# EXPERIMENTAL_SETUP: Homo sapiens, Table 16
pIC50: −log10 of the molar value.
MEASURED_ENDPOINT: pIC50

compound=O=C(O)c1ccc2c(c1)nc(Nc1cccc(F)c1)c1ccsc12 target_desc=A549 relation_operator== observed_measurement=5.21
compound=N#Cc1cccc(Nc2nc3cc(C(=O)O)ccc3c3sccc23)c1 target_desc=A549 relation_operator== observed_measurement=4.79
compound=NS(=O)(=O)c1cccc(Nc2nc3cc(C(=O)O)ccc3c3sccc23)c1 target_desc=A549 relation_operator== observed_measurement=5.12
compound=O=C(O)c1ccc2c(c1)nc(Nc1cc(Cl)ccc1F)c1ccsc12 target_desc=A549 relation_operator== observed_measurement=4.51
compound="C#Cc1cccc(Nc2nc3cc(C(=O)O)ccc3c3sccc23)c1 [drawing 938]" target_desc=A549 relation_operator== observed_measurement=4.56
compound=O=C(NC1CC1)c1cccc(Nc2nc3cc(-c4nnn[nH]4)ccc3c3sccc23)c1 target_desc=A549 relation_operator== observed_measurement=5.35
compound=O=C(O)c1ccc2c(c1)nc(Nc1ccccc1)c1ncsc12 target_desc=A549 relation_operator=< observed_measurement=4.30
compound=CNC(=O)c1cccc(Nc2nc3cc(C(=O)O)ccc3c3sccc23)c1 target_desc=A549 relation_operator== observed_measurement=5.16
compound=O=C(O)c1ccc2c(c1)nc(Nc1cc(F)cc(F)c1)c1ccsc12 target_desc=A549 relation_operator== observed_measurement=5.13
compound=O=C(O)c1ccc2c(c1)nc(Nc1ccc(F)c(Cl)c1)c1ncsc12 target_desc=A549 relation_operator=< observed_measurement=4.30
compound=COc1cccc(Nc2nc3cc(C(=O)O)ccc3c3scnc23)c1 target_desc=A549 relation_operator=< observed_measurement=4.30
compound=O=C(O)c1ccc2c(c1)nc(Nc1cccc(F)c1)c1ncsc12 target_desc=A549 relation_operator=< observed_measurement=4.30
compound=O=C(O)c1ccc2c(c1)nc(Nc1cccc(Cl)c1)c1ccsc12 target_desc=A549 relation_operator== observed_measurement=4.93
compound=c1ccc(Nc2nc3cc(-c4nnc[nH]4)ccc3c3sccc23)cc1 target_desc=A549 relation_operator== observed_measurement=4.84
compound="O=C(O)c1ccc2c(c1)nc(Nc1cc(Cl)cc(Cl)c1)c1ccsc12 [drawing 984]" target_desc=A549 relation_operator== observed_measurement=4.88

----------
The entries below come with measured log10(IC50) values attached.
# Test system: MiaPaca human pancreatic carcinoma cells
# PROTOCOL_DESCRIPTION: Cell proliferation assay, Alamar Blue, MiaPaca
# Assay type: cell-based
# EXPERIMENTAL_SETUP: MIA PaCa-2, Table 18
# Experimental: A representative cell-proliferation assay protocol using Alamar Blue dye (stored at 4° C., use 20 ul per well) is described hereafter. c. […] h. Record fluorescence at an excitation wavelength of 544 nm and emission wavelength of 590 nm using a microplate reader. In the assays, cells are cultured with a test compound for approximately four days, the dye then is added to the cells and fluorescence of […] dye is detected after approximately four hours. […]
MEASURED_ENDPOINT: log10(IC50) (log10 of the value in µM)

compound="O=C(O)c1ccc2c(c1)nc(NC1CC1)c1nc(NC3CC3)ncc12 [drawing 1074]" target_desc="MiaPaca human pancreatic carcinoma cells" measured_endpoint=log10(IC50) observed_measurement=0.45
compound="C#Cc1cccc(Nc2nc3cc(C(=O)O)ccc3c3cnc(NCC4CCCO4)nc23)c1 (centres unmarked) [drawing 1063]" target_desc="MiaPaca human pancreatic carcinoma cells" measured_endpoint=log10(IC50) observed_measurement=-0.35
compound="O=C(O)c1ccc2c(c1)nc(NC1CC1)c1nc(NCc3ccccc3)ncc12 [drawing 1075]" target_desc="MiaPaca human pancreatic carcinoma cells" measured_endpoint=log10(IC50) observed_measurement=1.17
compound="O=C(O)c1ccc2c(c1)nc(NCc1cccnc1)c1nc(NC3CC3)ncc12 [drawing 1083]" target_desc="MiaPaca human pancreatic carcinoma cells" measured_endpoint=log10(IC50) observed_measurement=1.14
compound="CCCNc1ncc2c(n1)c(NC1CC1)nc1cc(C(=O)O)ccc12 [drawing 1103]" target_desc="MiaPaca human pancreatic carcinoma cells" measured_endpoint=log10(IC50) observed_measurement=0.67
compound="Cc1cc(Nc2ncc3c(n2)c(Nc2ccc(F)c(Cl)c2)nc2cc(C(=O)O)ccc23)[nH]n1 [drawing 1093]" target_desc="MiaPaca human pancreatic carcinoma cells" measured_endpoint=log10(IC50) observed_measurement=1.26
compound="O=C(O)c1ccc2c(c1)nc(NC1CC1)c1ccncc12 [drawing 1097]" target_desc="MiaPaca human pancreatic carcinoma cells" measured_endpoint=log10(IC50) observed_measurement=1.42
compound="C#Cc1cccc(Nc2nc3cc(C(=O)O)ccc3c3cnc(NCC4CC4)nc23)c1 [drawing 1064]" target_desc="MiaPaca human pancreatic carcinoma cells" measured_endpoint=log10(IC50) observed_measurement=-0.32
compound=Cc1cccc(Nc2nc3cc(C(=O)O)ccc3c3cncnc23)c1 target_desc="MiaPaca human pancreatic carcinoma cells" measured_endpoint=log10(IC50) observed_measurement=0.92
compound="CC1CCCCN1CCCNc1ncc2c(n1)c(Nc1ccc(F)c(Cl)c1)nc1cc(C(=O)O)ccc12 (centres unmarked) [drawing 1087]" target_desc="MiaPaca human pancreatic carcinoma cells" measured_endpoint=log10(IC50) observed_measurement=0.50
compound="COC(=O)c1ccc2c(c1)nc(NC1CC1)c1nc(SCc3ccccc3Cl)ncc12 [drawing 1069]" target_desc="MiaPaca human pancreatic carcinoma cells" measured_endpoint=log10(IC50) observed_measurement=1.51
compound="O=C(O)c1ccc2c(c1)nc(NCc1ccccc1)c1ccncc12 [drawing 1020]" target_desc="MiaPaca human pancreatic carcinoma cells" measured_endpoint=log10(IC50) observed_measurement=1.49
compound="O=C(O)c1ccc2c(c1)nc(NC1CC1)c1nc(Nc3ccccc3)ncc12 [drawing 1076]" target_desc="MiaPaca human pancreatic carcinoma cells" measured_endpoint=log10(IC50) observed_measurement=0.39
compound="O=C(O)c1ccc2c(c1)nc(NCCc1ccccc1)c1ccncc12 [drawing 1007]" target_desc="MiaPaca human pancreatic carcinoma cells" measured_endpoint=log10(IC50) observed_measurement=0.71
compound="O=C(O)c1ccc2c(c1)nc(NCc1ccccc1)c1nc(NC3CC3)ncc12 [drawing 1084]" target_desc="MiaPaca human pancreatic carcinoma cells" measured_endpoint=log10(IC50) observed_measurement=1.11
compound=CNc1ncc2c(n1)c(Nc1cccc(Cl)c1)nc1cc(C(=O)O)ccc12 target_desc="MiaPaca human pancreatic carcinoma cells" measured_endpoint=log10(IC50) observed_measurement=0.24

----------
# PROTOCOL_DESCRIPTION: Pharmacokinetics in ICR mice after IV and PO dose
# Format: in vivo
# EXPERIMENTAL_SETUP: mouse, plasma, PO, 24.5 mg/kg
MEASURED_ENDPOINT: AUC(0-inf)

compound="C#Cc1cccc(Nc2nc3cc(C(=O)O)ccc3c3cncnc23)c1 [drawing 1347]" observed_measurement="10900 ng·h/mL"

----------
# PROTOCOL_DESCRIPTION: Pharmacokinetics in ICR mice after IV and PO dose
# Assay type: in vivo
# EXPERIMENTAL_SETUP: mouse, plasma, PO 25 mg/kg
MEASURED_ENDPOINT: AUC(0-t) (ng·h/mL)

sample_smiles=O=C(O)c1ccc2c(c1)nc(Nc1cccc(Cl)c1)c1ccncc12 measured_endpoint=AUC(0-t) units_text=ng·h/mL observed_measurement=2920

----------
# TARGET_DESC: PARP (Homo sapiens (Human))
# Sequence (P09874 whole entry): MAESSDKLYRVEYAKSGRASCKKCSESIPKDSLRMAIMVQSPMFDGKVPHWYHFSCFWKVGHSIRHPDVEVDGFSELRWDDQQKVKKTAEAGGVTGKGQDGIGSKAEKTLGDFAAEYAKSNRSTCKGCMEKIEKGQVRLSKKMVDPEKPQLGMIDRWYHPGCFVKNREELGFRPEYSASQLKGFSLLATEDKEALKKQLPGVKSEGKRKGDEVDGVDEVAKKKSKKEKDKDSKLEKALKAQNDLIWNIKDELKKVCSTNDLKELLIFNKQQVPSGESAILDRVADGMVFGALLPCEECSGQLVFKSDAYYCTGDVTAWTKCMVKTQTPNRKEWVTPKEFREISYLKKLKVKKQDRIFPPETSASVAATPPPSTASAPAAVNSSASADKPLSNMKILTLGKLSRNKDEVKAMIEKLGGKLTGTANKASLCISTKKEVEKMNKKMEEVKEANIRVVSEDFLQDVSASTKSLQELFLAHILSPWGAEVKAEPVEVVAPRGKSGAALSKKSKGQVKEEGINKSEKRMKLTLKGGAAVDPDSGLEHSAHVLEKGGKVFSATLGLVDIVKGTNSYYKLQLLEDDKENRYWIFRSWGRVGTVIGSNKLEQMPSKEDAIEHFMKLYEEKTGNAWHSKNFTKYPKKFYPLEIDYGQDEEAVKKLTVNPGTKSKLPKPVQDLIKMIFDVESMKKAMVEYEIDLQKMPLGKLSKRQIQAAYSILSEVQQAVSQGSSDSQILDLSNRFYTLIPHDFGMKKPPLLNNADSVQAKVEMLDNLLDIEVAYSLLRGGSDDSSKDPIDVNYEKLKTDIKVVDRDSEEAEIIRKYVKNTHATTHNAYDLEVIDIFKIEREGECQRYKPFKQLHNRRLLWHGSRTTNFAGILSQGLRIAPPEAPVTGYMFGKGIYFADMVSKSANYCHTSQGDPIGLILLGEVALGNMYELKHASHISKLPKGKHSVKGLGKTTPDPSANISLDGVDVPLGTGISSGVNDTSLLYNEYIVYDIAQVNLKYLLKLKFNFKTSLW
# PROTOCOL_DESCRIPTION: PARP assay (chemiluminescent PARP assay kit, Trevigen)
# Type: biochemical
# EXPERIMENTAL_SETUP: 20 uM; Table 12; read-out: PARP % inhib @ 20 uM
MEASURED_ENDPOINT: inhibition at 20 µM (%)

sample_smiles=O=C(Nc1ccc(Cl)cc1)c1ccc2c(c1)[nH]c(=O)c1ccsc12 measured_endpoint="inhibition at 20 µM" units_text=% observed_measurement=55
sample_smiles=O=C(Nc1ccc(N2CCOCC2)cc1)c1ccc2c(c1)[nH]c(=O)c1ccsc12 measured_endpoint="inhibition at 20 µM" units_text=% observed_measurement=37
sample_smiles=CC(C)(C)OC(=O)CCNC(=O)c1ccc2c(c1)[nH]c(=O)c1ccsc12 measured_endpoint="inhibition at 20 µM" units_text=% observed_measurement=82
sample_smiles=CCCNC(=O)c1ccc2c(c1)[nH]c(=O)c1ccsc12 measured_endpoint="inhibition at 20 µM" units_text=% observed_measurement=88
sample_smiles=COCCNC(=O)c1ccc2c(c1)[nH]c(=O)c1ccsc12 measured_endpoint="inhibition at 20 µM" units_text=% observed_measurement=93
sample_smiles=O=C(O)c1ccc2c(c1)[nH]c(=O)c1cc(Br)sc12 measured_endpoint="inhibition at 20 µM" units_text=% observed_measurement=84
sample_smiles=COc1ccc(CCNC(=O)c2ccc3c(c2)[nH]c(=O)c2ccsc23)cc1OC measured_endpoint="inhibition at 20 µM" units_text=% observed_measurement=67
sample_smiles=CN(C)C(=O)c1ccc2c(c1)[nH]c(=O)c1ccsc12 measured_endpoint="inhibition at 20 µM" units_text=% observed_measurement=97
sample_smiles=O=C(NC1CC1)c1ccc2c(c1)[nH]c(=O)c1ccsc12 measured_endpoint="inhibition at 20 µM" units_text=% observed_measurement=90
sample_smiles=COc1ccc(NC(=O)c2ccc3c(c2)[nH]c(=O)c2ccsc23)c(OC)c1 measured_endpoint="inhibition at 20 µM" units_text=% observed_measurement=32
sample_smiles=COC(=O)c1ccc2c(c1)[nH]c(=O)c1ccsc12 measured_endpoint="inhibition at 20 µM" units_text=% observed_measurement=84
